test: Identification of antibody-drug conjugate (ADC) payloads which are substrates of ATP-binding cassette drug efflux transporters: cell line panel data; details: 99 cancer cell line panel, CellTiter-Glo viability, 48 h; stronger effect = lower value
Square brackets hold non-standard residues; d marks the D form. Peptide text beside a SMILES is read from it. Dolaproine = CO[C@@H]([C@@H]1CCCN1)[C@@H](C)C(=O)O; Dil = CC[C@H](C)[C@H](NC)[C@@H](CC(=O)O)OC; NMeV = CN[C@H](C(=O)O)C(C)C
Provide the recorded viability AUC for the entries that follow.
Answers are plain numbers.

As a guide, the following entries are already answered.
- molecule: "CCN[C@H]1CO[C@@H](O[C@H]2[C@H](O[C@H]3C#C/C=C\\C#C[C@]4(O)CC(=O)C(NC(=O)OC)=C3/C4=C\\CSSSC)O[C@H](C)[C@@H](NO[C@H]3C[C@H](O)[C@H](SC(=O)c4c(C)c(I)c(O[C@@H]5O[C@@H](C)[C@H](O)[C@@H](OC)[C@H]5O)c(OC)c4OC)[C@@H](C)O3)[C@@H]2O)C[C@@H]1OC"
  viability AUC: 635
- molecule: "COc1cccc2c1C(=O)c1c(O)c3c(c(O)c1C2=O)C[C@@](O)(C(=O)CO)C[C@@H]3O[C@H]1C[C@H]2[C@H](O[C@@H]3[C@@H](OC)OCCN32)[C@H](C)O1"
  viability AUC: 549

Please look at the items below and tell me viability AUC for each one, in order.
1. CN(C)CCOc1ccc2[nH]c(C(=O)N3C[C@@H](CCl)c4c3cc(O)c3ccccc43)cc2c1
2. CC(C)(C)OC(=O)Nc1ccc2[nH]c(C(=O)N3C[C@@H](CCl)c4c3cc(O)c3ccccc43)cc2c1
3. CC[C@H](C)[C@@H]([C@H](N)CC(=O)N1CCC[C@H]1[C@H](OC)[C@@H](C)C(=O)N[C@@H](Cc1ccccc1)c1nccs1)N(C)C(=O)[C@@H](NC(=O)[C@H](C(C)C)N(C)C)C(C)C
4. CC[C@H](C)[C@@H]([C@@H](CC(=O)N1CCC[C@H]1[C@H](OC)[C@@H](C)C(=O)N[C@@H](Cc1ccccc1)C(=O)O)OC)N(C)C(=O)[C@@H](NC(=O)[C@@H](NC)C(C)C)C(C)C (H-[NMeV]V[Dil][Dolaproine]F-OH)
5. CCN(C(C)=O)[C@H]1CO[C@@H](O[C@H]2[C@H](O[C@H]3C#C/C=C\C#C[C@]4(O)CC(=O)C(NC(=O)OC)=C3/C4=C\CSSSC)O[C@H](C)[C@@H](NO[C@H]3C[C@H](O)[C@H](SC(=O)c4c(C)c(I)c(O[C@@H]5O[C@@H](C)[C@H](O)[C@@H](OC)[C@H]5O)c(OC)c4OC)[C@@H](C)O3)[C@@H]2O)C[C@@H]1OC

1. 514
2. 645
3. 769
4. 938
5. 700
